Target system: AgNbp2
Test description: SPOT peptide array binding signal intensity (averaged, normalized) (arbitrary units (background-subtracted, floor 0; scale differs between SH3 domains)); higher = stronger binding of the SH3 domain to the peptide
Quick list: SPOT peptide array binding signal intensity per entry.
Just the number.

TSIEIPKRSPLRFTS : 10.5
FSRRQSMDIPSKNRN : 660
PPIPNAPLSPAPAVP : 3.5

So what's the measured SPOT peptide array binding signal intensity for this one? NHSRSLFSLPGNQQS
44

So what's the measured SPOT peptide array binding signal intensity for this one? NPNRRAPRRPLSTQH
1950
